Cited source for all entries: paper PMC7057333

- SYSTEM: LSD1 (Homo sapiens, UniProt O60341)
- Construct: made in house; host or cells: Escherichia coli Rosetta 2 (pET15b)
- PROTOCOL_NOTES: HRP-coupled fluorescence LSD1 demethylation activity and inhibition assay, substrate H3_1-21 K4(Me)
- Type: biochemical
- TEST_CONDITIONS: supplement sheet SMILES and Activity; read-out: IC50
Bridge positions count the residues as written; N and C are the ends. Square brackets hold non-standard residues; d marks the D form. Peptide text beside a SMILES is read from it. Cit = NC(=O)NCCC[C@H](N)C(=O)O
Please assign condition not met whenever IC50 is at or above 40 µM, and condition met whenever it is below.

These recorded examples may help you get a feel for the data.
INSERT INTO assay_data (compound, class) VALUES
  ('CSCC[C@@H]1NC(=O)[C@@H](NC(=O)[C@H](CCCNC(=N)N)NC(=O)[C@@H]2CCCN2)CCC(=O)NCCCC[C@@H](C(=O)N[C@@H](C)C(=O)N[C@@H](CCCNC(=N)N)C(=O)N[C@@H](CCCCN)C(=O)N[C@@H](CO)C(=O)N[C@H](C(N)=O)[C@@H](C)O)NC(=O)[C@H](CCC(N)=O)NC1=O [Peptide 30] (H-PREMQKARKST-NH2; lactam 3-6)', 'condition not met'),
  ('CSCC[C@@H]1NC(=O)[C@@H](NC(=O)[C@H](CCCNC(=N)N)NC(=O)[C@H](C)N)CCC(=O)NCCCC[C@@H](C(=O)N[C@@H](C)C(=O)N[C@@H](CCCNC(N)=O)C(=O)N[C@@H](CCCCN)C(=O)N[C@@H](CO)C(=O)N[C@H](C(N)=O)[C@@H](C)O)NC(=O)[C@H](CCC(N)=O)NC1=O [Peptide 34] (H-AREMQKA[Cit]KST-NH2; lactam 3-6)', 'condition met'),
  ('CSCC[C@@H]1NC(=O)[C@@H](NC(=O)[C@H](CCCNC(=N)N)NC(=O)[C@H](C)N)CCCCNC(=O)CC[C@@H](C(=O)N[C@@H](C)C(=O)N[C@@H](CCCNC(=N)N)C(=O)N[C@@H](CCCCN)C(=O)N[C@@H](CO)C(=O)N[C@H](C(N)=O)[C@@H](C)O)NC(=O)[C@H](CCC(N)=O)NC1=O [Peptide 27]', 'condition not met'),
  ('CSCC[C@@H]1NC(=O)[C@H](NC(=O)[C@H](CCCNC(=N)N)NC(=O)[C@H](C)N)CCCCNC(=O)CC[C@@H](C(=O)N[C@@H](C)C(=O)N[C@@H](CCCNC(=N)N)C(=O)N[C@@H](CCCCN)C(=O)N[C@@H](CO)C(=O)N[C@H](C(N)=O)[C@@H](C)O)NC(=O)[C@H](CCC(N)=O)NC1=O (relative stereo) [Peptide 31]', 'condition met'),
  ('CSCC[C@@H]1NC(=O)[C@@H](NC(=O)[C@H](CCCNC(=N)N)NC(=O)[C@H](C)N)CCC(=O)NCCCC[C@@H](C(=O)N[C@@H](C)C(=O)N[C@@H](CCCNC(=N)N)C(=O)N[C@@H](CCCCN)C(=O)N[C@@H](CO)C(=O)N[C@H](C(N)=O)[C@@H](C)O)NC(=O)[C@H](CCC(N)=O)NC1=O [Peptide 28]', 'condition met');

Here's an entry: CSCC[C@@H]1NC(=O)[C@@H](NC(=O)[C@H](CCCNC(=N)N)NC(=O)[C@H](C)N)Cc2cn(nn2)CCCC[C@@H](C(=O)N[C@@H](C)C(=O)N[C@@H](CCCNC(=N)N)C(=O)N[C@@H](CCCCN)C(=O)N[C@@H](CO)C(=O)N[C@H](C(N)=O)[C@@H](C)O)NC(=O)[C@H](CCC(N)=O)NC1=O [Peptide 36, ARG^prgMQK^azdARKST-NH2] . Is its IC50 below 40 µM?
condition not met

Do the same for CSCC[C@@H]1NC(=O)[C@@H](NC(=O)[C@H](CCCNC(=N)N)NC(=O)[C@@H]2CCCN2)CCCCNC(=O)CC[C@@H](C(=O)N[C@@H](C)C(=O)N[C@@H](CCCNC(=N)N)C(=O)N[C@@H](CCCCN)C(=O)N[C@@H](CO)C(=O)N[C@H](C(N)=O)[C@@H](C)O)NC(=O)[C@H](CCC(N)=O)NC1=O [Peptide 29] (H-PRKMQEARKST-NH2; lactam 3-6) please
condition met
